Readings of CC50 for the listed compounds
# Tested on: MCF7
# experimental context: read-out: LC50; MCF7 (Breast Cancer), 48 hours, SRB

compound	measurement target	u	CC50
CN(C)c1cccc2c(S(=O)(=O)NCCCCCCCCCCOc3ccc4c(c3)[N+]([O-])=C3C4=C[C@@]45NC(=O)C6(CCCN6C4=O)CC5C3(C)C)cccc12 (some centres unmarked) [Dansyl Analogue]	MCF7	µM	2.61
CC1(C)C=Cc2c(ccc3c4c(n(O)c23)C(C)(C)C2CC35CCCN3C(=O)C2(NC5=O)C4SCC(NC(=O)CCC(N)C(=O)O)C(=O)NCC(=O)O)O1 (centres unmarked) [Glutathione Adduct]	MCF7	µM	33.6

* * *

Each entry below carries its recorded CC50.
# Tested on: A498
# experimental context: read-out: LC50; A498 (Renal Cancer), 48 hours, SRB

compound	measurement target	CC50, µM
CC1(C)C=Cc2c(ccc3c4c(n(O)c23)C(C)(C)C2CC35CCCN3C(=O)C2(NC5=O)C4SCC(NC(=O)CCC(N)C(=O)O)C(=O)NCC(=O)O)O1 (centres unmarked)	A498	4.16
CN(C)c1cccc2c(S(=O)(=O)NCCCCCCCCCCOc3ccc4c(c3)[N+]([O-])=C3C4=C[C@@]45NC(=O)C6(CCCN6C4=O)CC5C3(C)C)cccc12 (some centres unmarked)	A498	4.4

* * *

# Test system: CCRF-CEM
# experimental context: read-out: LC50; CCRF-CEM (Leukemia), 48 hours, SRB

compound	comparative sign	CC50, µM
CC1(C)C=Cc2c(ccc3c4c(n(O)c23)C(C)(C)C2CC35CCCN3C(=O)C2(NC5=O)C4SCC(NC(=O)CCC(N)C(=O)O)C(=O)NCC(=O)O)O1 (centres unmarked)	=	35
CN(C)c1cccc2c(S(=O)(=O)NCCCCCCCCCCOc3ccc4c(c3)[N+]([O-])=C3C4=C[C@@]45NC(=O)C6(CCCN6C4=O)CC5C3(C)C)cccc12 (some centres unmarked)	>	100

* * *

# Tested on: KM12
# experimental context: read-out: LC50; KM12 (Colon Cancer), 48 hours, SRB
Entries annotated with measured CC50

molecule	measurement target	CC50, µM
CC1(C)C=Cc2c(ccc3c4c(n(O)c23)C(C)(C)C2CC35CCCN3C(=O)C2(NC5=O)C4SCC(NC(=O)CCC(N)C(=O)O)C(=O)NCC(=O)O)O1 (centres unmarked)	KM12	3.73
CN(C)c1cccc2c(S(=O)(=O)NCCCCCCCCCCOc3ccc4c(c3)[N+]([O-])=C3C4=C[C@@]45NC(=O)C6(CCCN6C4=O)CC5C3(C)C)cccc12 (some centres unmarked)	KM12	6.6

* * *

# System: SN12C
# experimental context: read-out: LC50; SN12C (Renal Cancer), 48 hours, SRB
Listed next: entries and their corresponding CC50.

compound	CC50
CC1(C)C=Cc2c(ccc3c4c(n(O)c23)C(C)(C)C2CC35CCCN3C(=O)C2(NC5=O)C4SCC(NC(=O)CCC(N)C(=O)O)C(=O)NCC(=O)O)O1 (centres unmarked)	17.8 µM
CN(C)c1cccc2c(S(=O)(=O)NCCCCCCCCCCOc3ccc4c(c3)[N+]([O-])=C3C4=C[C@@]45NC(=O)C6(CCCN6C4=O)CC5C3(C)C)cccc12 (some centres unmarked)	31.7 µM

* * *

# Tested on: SF-295
# experimental context: read-out: LC50; SF-295 (CNS Cancer), 48 hours, SRB
assay endpoint: CC50 (µM)

molecule	assay endpoint	quantitative readout
CN(C)c1cccc2c(S(=O)(=O)NCCCCCCCCCCOc3ccc4c(c3)[N+]([O-])=C3C4=C[C@@]45NC(=O)C6(CCCN6C4=O)CC5C3(C)C)cccc12 (some centres unmarked)	CC50	49.4
CC1(C)C=Cc2c(ccc3c4c(n(O)c23)C(C)(C)C2CC35CCCN3C(=O)C2(NC5=O)C4SCC(NC(=O)CCC(N)C(=O)O)C(=O)NCC(=O)O)O1 (centres unmarked)	CC50	24.4

Cited source: patent US20110105515A1
